Read-out: matrix metalloproteinase-3 (MMP3), MMP3 (gene 4314)
Test: LTEA_HepaRG_MMP3: Life Technologies and Expression Analysis (LTEA) Assay for matrix metalloproteinase-3 (MMP3) using HepaRG (AID 2283519)
Settings: mRNA level, 48 h; actives raise or lower the signal
Active and inactive are the calls of the source. How the source made its calls: active means hit-call score of the fitted dose curve at least 0.9, where 1 is the maximum; inactive means score below 0.9.
Give one outcome, nothing more. List: active, inactive

The examples below pair each entry with its known result.
CCCCCCCCCCCCCCOS(=O)(=O)O ... inactive
CC(C)c1cccc(C(C)C)c1NC(=O)NS(=O)(=O)c1cc(C(C)(C)O)co1 ... inactive
CCC(C)N(C)C(=O)c1cc2ccccc2c(-c2ccccc2Cl)n1 (stereo not given) ... inactive
CSc1ccc(Oc2ccc(S(N)(=O)=O)cc2CN(C)C)cc1C ... inactive
Nc1nc(Cl)nc2c1ncn2[C@H]1C[C@H](O)[C@@H](CO)O1 ... active

### Prompt Query: recorded result category for O=[Si]=O in this test
### Response inactive

### Prompt One more molecule: O=C(O)c1[nH]n(-c2ccc(S(=O)(=O)O)cc2)c(=O)c1N=Nc1ccc(S(=O)(=O)O)cc1
### Response inactive
